# test target: HIV IN (Wild-type monomer) (Human immunodeficiency virus type 1 group M subtype B, UniProt P04585)
# Construct: 1 uM HIV IN (Wild-type monomer)
# Type: biochemical, HIV-1
# condition notes: Table 1; read-out: IC50 (concerted integration)
pIC50: −log10 of the molar value.

- smiles record: "Cn1ncnc2c(=O)n(C)c(=O)nc1-2"
  pIC50: 6.70

###

In this section we review reported IC50 values for a set of compounds.
# test target: UniProtKB P14350
# experiment: Specificity: single end and concerted integration in vitro, PFV integrase
# Assay type: biochemical
# condition notes: Table 6; read-out: PFV Concerted IC50
quantity: IC50

- compound: "Cn1ncnc2c(=O)n(C)c(=O)nc1-2 [Formula I-1]"
  recorded result: "> 1000 µM"
- compound: "O=C(CCCCCNc1ccc([N+](=O)[O-])c2nonc12)ON1C(=O)CCC1=O [II-4]"
  recorded result: "> 390 µM"
- compound: "Cc1nnc(C(=O)NC(C)(C)c2nc(C(=O)NCc3ccc(F)cc3)c(O)c(=O)n2C)o1 [RAL, Raltegravir, reference compound]"
  recorded result: "1 µM"
